target.under.test: T1, CD3 on monkey T cells (monkey splenocytes) (monkey)
T1 construct: whole, on cells; The target is printed as 'monkey T cells'
procedure.summary: flow cytometry on monkey splenocytes, 1 µg antibody per 10^6 cells in 100 µl, PE anti-human IgG detection
endpoint.label: Mean : Comp-PE-A
Answer with a bare number; do not write a unit.

Known Mean : Comp-PE-A results, listed for orientation:
## Input Can you look up the measured Mean : Comp-PE-A of B07 (antibody, human IgG1, lambda, L234A L235A, V domains shown, humanized SP34 IgG1, lambda; also called B7) VH: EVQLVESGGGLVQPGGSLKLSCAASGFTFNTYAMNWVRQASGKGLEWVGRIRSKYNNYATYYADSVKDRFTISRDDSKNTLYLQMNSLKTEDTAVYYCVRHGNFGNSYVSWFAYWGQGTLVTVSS VL: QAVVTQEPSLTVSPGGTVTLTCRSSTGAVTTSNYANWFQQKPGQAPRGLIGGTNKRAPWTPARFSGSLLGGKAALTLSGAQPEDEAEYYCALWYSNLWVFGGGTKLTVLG for me?
## Output 4790

## Input May I ask what Mean : Comp-PE-A has been recorded for F16 (antibody, human IgG1, lambda, L234A L235A, V domains shown, humanized SP34 IgG1, lambda) VH: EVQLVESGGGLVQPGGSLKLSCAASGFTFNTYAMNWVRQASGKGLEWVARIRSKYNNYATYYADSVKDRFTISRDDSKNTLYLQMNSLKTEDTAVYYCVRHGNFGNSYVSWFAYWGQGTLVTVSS VL: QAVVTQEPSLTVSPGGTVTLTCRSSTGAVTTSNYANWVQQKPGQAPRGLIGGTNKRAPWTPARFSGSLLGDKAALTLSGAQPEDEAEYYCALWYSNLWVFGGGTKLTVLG ?
## Output 11900

## Input Please give the measured Mean : Comp-PE-A for this binder: B16 (antibody, human IgG1, lambda, L234A L235A, V domains shown, humanized SP34 IgG1, lambda) VH: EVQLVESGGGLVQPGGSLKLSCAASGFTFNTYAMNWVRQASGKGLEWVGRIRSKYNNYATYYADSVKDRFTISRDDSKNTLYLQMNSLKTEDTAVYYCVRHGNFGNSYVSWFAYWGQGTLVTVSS VL: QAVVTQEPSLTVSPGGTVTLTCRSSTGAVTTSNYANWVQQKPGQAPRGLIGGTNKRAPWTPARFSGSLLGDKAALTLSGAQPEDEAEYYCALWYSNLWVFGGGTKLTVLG
## Output 17200

## Input Find the recorded Mean : Comp-PE-A belonging to A07 (antibody, human IgG1, lambda, L234A L235A, V domains shown, humanized SP34 IgG1, lambda; also called A7) VH: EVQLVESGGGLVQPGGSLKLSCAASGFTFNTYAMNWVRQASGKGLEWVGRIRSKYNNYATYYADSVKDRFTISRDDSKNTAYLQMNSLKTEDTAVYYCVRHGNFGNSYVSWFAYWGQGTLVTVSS VL: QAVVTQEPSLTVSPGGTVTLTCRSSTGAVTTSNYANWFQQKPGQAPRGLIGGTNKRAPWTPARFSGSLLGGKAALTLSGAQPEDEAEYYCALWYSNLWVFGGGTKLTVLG and report it.
## Output 6680

Please turn your attention to the following entry.
## Input Report Mean : Comp-PE-A for B15 (antibody, human IgG1, lambda, L234A L235A, V domains shown, humanized SP34 IgG1, lambda) VH: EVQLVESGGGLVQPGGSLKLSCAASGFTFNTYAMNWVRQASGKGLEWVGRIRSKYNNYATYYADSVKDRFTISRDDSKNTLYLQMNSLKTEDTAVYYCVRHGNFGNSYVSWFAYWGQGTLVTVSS VL: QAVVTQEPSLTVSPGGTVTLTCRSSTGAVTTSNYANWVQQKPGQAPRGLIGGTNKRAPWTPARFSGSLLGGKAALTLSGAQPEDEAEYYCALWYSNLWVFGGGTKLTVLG please.
## Output 16300
